# TARGET_UNDER_TEST: UniProt P19438
# Sequence (P19438 30-455): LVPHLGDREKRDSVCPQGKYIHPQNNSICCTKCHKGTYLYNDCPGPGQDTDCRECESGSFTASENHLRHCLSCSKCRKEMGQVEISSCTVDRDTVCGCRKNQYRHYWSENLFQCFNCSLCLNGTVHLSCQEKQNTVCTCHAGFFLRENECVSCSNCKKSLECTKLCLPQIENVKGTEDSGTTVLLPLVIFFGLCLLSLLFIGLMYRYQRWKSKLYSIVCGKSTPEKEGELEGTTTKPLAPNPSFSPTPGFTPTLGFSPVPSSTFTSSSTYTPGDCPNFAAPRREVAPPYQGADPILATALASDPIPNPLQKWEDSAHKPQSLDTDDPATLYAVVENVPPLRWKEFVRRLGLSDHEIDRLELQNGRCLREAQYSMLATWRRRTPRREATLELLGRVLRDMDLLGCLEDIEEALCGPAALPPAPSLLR
PROPERTY_MEASURED: Kd (µM)

# COMPOUND, VALUE_OBSERVED
rows = [
    ("O=C(NCc1ccc2c(c1)OCO2)C1CCCN(c2ncnc3nc[nH]c23)C1 (stereo not shown) [Compound R1]", 16),
]
